Test system: SARS-CoV-2
Format: cell-based
Quantity: effect on SARS-CoV-2 infection (in words)

>  <Compound>
COc1ccc(CCN2CCN(CCCc3ccccc3)CC2)cc1OC [SA4503]

>  <Obs value>
did not block infection

$$$$
>  <Compound>
O=C(OCCN1CCOCC1)C1(c2ccccc2)CCCCC1 [PRE084]

>  <Obs value>
did not block infection

$$$$
